system: ERCC1-XPF (Homo sapiens, UniProt P07992+Q92889)
Construct: made in house; host or cells: Sf9 insect cells, baculovirus (obtained from Aziz Sancar)
Sequence (Q92889 whole entry): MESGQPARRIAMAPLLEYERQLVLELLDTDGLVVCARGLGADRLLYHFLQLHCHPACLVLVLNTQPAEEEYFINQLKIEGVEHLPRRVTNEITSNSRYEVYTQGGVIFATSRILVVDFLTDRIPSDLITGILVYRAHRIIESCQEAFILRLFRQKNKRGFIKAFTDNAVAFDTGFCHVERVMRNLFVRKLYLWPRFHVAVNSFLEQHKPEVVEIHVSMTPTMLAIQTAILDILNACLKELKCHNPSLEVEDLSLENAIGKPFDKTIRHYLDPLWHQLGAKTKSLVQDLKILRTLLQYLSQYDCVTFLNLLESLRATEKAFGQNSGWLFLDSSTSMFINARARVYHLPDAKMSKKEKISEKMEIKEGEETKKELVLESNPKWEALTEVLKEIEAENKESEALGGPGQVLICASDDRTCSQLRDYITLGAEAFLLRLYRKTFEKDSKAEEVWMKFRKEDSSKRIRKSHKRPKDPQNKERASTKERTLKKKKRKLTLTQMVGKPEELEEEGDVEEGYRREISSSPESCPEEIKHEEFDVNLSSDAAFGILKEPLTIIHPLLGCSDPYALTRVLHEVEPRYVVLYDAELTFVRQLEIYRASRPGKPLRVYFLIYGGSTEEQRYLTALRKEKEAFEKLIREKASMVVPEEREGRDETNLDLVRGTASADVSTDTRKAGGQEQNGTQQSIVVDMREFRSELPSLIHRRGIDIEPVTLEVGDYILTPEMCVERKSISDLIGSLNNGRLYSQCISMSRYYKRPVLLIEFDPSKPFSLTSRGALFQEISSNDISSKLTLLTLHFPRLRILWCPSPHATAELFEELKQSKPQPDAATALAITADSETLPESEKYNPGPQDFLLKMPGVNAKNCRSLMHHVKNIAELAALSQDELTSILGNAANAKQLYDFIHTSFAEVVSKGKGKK
Sequence (P07992 whole entry): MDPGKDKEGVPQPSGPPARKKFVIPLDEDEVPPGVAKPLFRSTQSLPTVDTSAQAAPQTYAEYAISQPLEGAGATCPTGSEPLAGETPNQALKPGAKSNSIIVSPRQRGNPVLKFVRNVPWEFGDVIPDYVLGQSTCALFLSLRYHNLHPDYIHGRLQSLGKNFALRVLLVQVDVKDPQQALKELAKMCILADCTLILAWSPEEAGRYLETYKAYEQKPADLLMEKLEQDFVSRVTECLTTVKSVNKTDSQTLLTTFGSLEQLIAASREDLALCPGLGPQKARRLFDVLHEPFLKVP
assay-explanation: HTS fluorescence assay of ERCC1-XPF endonuclease activity
Format: biochemical
assay-conditions: read-out: 50% inhibition of ERCC1-XPF

molecule: Oc1cc(O)c2c(c1)OC(c1ccc(O)c(O)c1)C(O)C2c1c(O)cc(O)c2c1OC(c1ccc(O)c(O)c1)C(O)C2 (stereo not shown)
system: ERCC1-XPF (Homo sapiens, UniProt P07992+Q92889)
IC50: ~22 nM

###

system: ERCC1-XPF (Homo sapiens, UniProt P07992+Q92889)
Construct: made in house; host or cells: Sf9 insect cells, baculovirus (obtained from Aziz Sancar)
assay-explanation: HTS fluorescence assay of ERCC1-XPF endonuclease activity
Type: biochemical
assay-conditions: IC50s calculated by CompuSyn, SD from 3 plots, read-out: ERCC1-XPF IC50
Method: To screen for ERCC1-XPF inhibition, an existing in vitro assay was optimized to a 96-well plate format to allow for screening of compound libraries (NCI-DTP diversity set). […] The initial cuvette-based assay was optimized for DNA, MgCl2 concentrations as well as the incubation time to be used in the fluorescence assay in a 96 well plate format (Supplementary Figure S2). […]
Exam item: assign true (1) to entries whose IC50 is below 400 nM and false (0) to entries at or above 400 nM. Note that a value of exactly 400 nM receives false (0).

compound: C[C@@H](O)CN(CCN(C[C@@H](C)O)C[C@@H](C)O)C[C@@H](C)O.O=[N+]([O-])O.[Cu] [NSC103019]
assigned-class: false (0)
--
compound: NC(=O)C[S+]([O-])CC(N)C(=O)O (centres unmarked) [NSC14161]
assigned-class: false (0)
--
compound: Cc1ccc(S(=O)(=O)Oc2cc(S(=O)(=O)O)cc3cc(S(=O)(=O)O)cc(N)c23)cc1 [NSC16168]
assigned-class: false (0)
--
compound: Oc1cc(O)c2c(c1)OC(c1ccc(O)c(O)c1)C(O)C2c1c(O)cc(O)c2c1OC(c1ccc(O)c(O)c1)C(O)C2 (centres unmarked) [NSC143099]
assigned-class: true (1)
--
compound: O=S(=O)(NCCO)c1cc[c]([Sb](=[O])([OH])[OH])cc1 [NSC13776]
assigned-class: false (0)
